molecular target: Glutamate carboxypeptidase 2 (Homo sapiens, UniProt Q04609); assay: Inhibition of NAALADase expressed in LNCaP human prostate cancer cells; assay type: cell-based
Sequence (Q04609 whole entry): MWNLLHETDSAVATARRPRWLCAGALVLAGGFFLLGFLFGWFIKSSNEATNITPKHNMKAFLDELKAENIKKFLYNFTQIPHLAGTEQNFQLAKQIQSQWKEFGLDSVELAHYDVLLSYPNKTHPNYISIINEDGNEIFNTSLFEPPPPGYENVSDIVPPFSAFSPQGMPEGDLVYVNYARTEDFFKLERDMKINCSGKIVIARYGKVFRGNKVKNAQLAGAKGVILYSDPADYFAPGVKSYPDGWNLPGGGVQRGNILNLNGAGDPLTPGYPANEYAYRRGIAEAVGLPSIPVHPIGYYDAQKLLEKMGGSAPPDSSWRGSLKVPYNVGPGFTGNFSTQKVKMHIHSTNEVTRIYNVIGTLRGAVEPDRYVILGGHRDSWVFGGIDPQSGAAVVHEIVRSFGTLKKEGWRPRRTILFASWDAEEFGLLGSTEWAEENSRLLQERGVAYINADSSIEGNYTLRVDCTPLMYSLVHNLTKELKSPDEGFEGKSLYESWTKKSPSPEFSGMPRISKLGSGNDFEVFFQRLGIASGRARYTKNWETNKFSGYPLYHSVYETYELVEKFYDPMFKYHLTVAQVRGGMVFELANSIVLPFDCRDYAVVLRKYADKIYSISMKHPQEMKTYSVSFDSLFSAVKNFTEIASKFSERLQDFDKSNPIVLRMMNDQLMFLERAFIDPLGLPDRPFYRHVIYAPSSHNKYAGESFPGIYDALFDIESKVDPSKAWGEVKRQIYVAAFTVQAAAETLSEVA
Metric Name: pIC50
Please treat pIC50 as minus the base-10 logarithm of the molar concentration.

State the recorded pIC50 for this entry: O=C(O)CCC(CP(=O)(O)OCc1ccccc1)C(=O)O (stereo unspecified)
7.90
